Tested on: HUVEC
Assay: Cytotoxicity against HUVEC assessed as reduction in cell viability up to 100 uM after 24 hrs by MTT assay
Assay type: cell-based
Details: human
measured-property: Activity

Consider the following illustrative entries.
>>> print(df.to_string())
                                   compound   reported
0  CC(C)(O)c1ccc2c(c1)C(=O)C[C@H]1[C@](C)(C(=O)O)CCC[C@]21C  Non-Toxic
1           CC1=CC[C@@H](C(C)(C)O)C[C@@H]1O  Non-Toxic
2  CC(C)(O)c1ccc2c(c1)[C@@H](O)C[C@H]1[C@](C)(C(=O)O)CCC[C@]21C  Non-Toxic
3  CC(C)(O)c1ccc2c(c1)[C@H](O)C[C@H]1[C@](C)(C(=O)O)CCC[C@]21C      Toxic

# lookup: Activity of O=C(O)c1ccc(O)cc1 [PARABEN] Non-Toxic

====

Tested on: HUVEC
Experiment: Cytotoxicity against HUVEC assessed as reduction in cell viability up to 100 uM after 24 hrs by MTT assay
Assay type: cell-based
Conditions: human
measured-property: Activity

                                   compound  assay_target  reported
0  CC(C)c1ccc2c(c1)CC[C@H]1[C@](C)(C(=O)O)CCC[C@]21C [DEHYDROABIETIC ACID]         HUVEC     Toxic
1      C=C(C)[C@@H]1CC[C@](C)(O)[C@@H](O)C1         HUVEC     Toxic
2  C=C1CC[C@@H]2[C@](C)(CCC[C@@]2(C)C(=O)O[C@@H]2O[C@H](CO)[C@@H](O)[C@H](O)[C@H]2O)[C@H]1CCC1=CCOC1=O         HUVEC     Toxic
